Assay: xn = mol fraction of the nth substance listed, in the solute-free solvent
Conditions: 313.15 K; x2 = 0.03225
METRIC_NAME: solubility (g/100 g solution)

1. O=C1C=CC(=O)N1c1ccccc1Br + CC(C)O + O | 2.23
2. O=c1cc(CBr)c2ccccc2[nH]1 + CCCO + O | 0.0826
3. Nc1ncc(Br)nc1Br + CC(C)O + O | 0.0405
4. O=c1cc(CBr)c2ccccc2[nH]1 + CC(C)O + O | 0.0718
5. CC(C)C(=O)Nc1ccc([N+](=O)[O-])c(C(F)(F)F)c1 + CC(C)O + O | 0.0236

###

Reported solubility (g/100 g solution) values follow for various compounds
Assay: xn = mol fraction of the nth substance listed, in the solute-free solvent
Settings: 313.15 K; x2 = 0.04165
METRIC_NAME: solubility (g/100 g solution)

1. O=c1cc(CBr)c2ccccc2[nH]1 + CCO + O | 0.0753
2. Nc1cc(-c2ccncc2)c[nH]c1=O + CCO + O | 0.00327
3. O=C1C=CC(=O)N1c1ccccc1Br + CCO + O | 2.48
4. Nc1ncc(Br)nc1Br + CCO + O | 0.0552
5. CC(C)C(=O)Nc1ccc([N+](=O)[O-])c(C(F)(F)F)c1 + CCO + O | 0.0162

###

Assay: xn = mol fraction of the nth substance listed, in the solute-free solvent
Settings: 283.15 K; x2 = 0.4117
METRIC_NAME: solubility (g/100 g solution)

1) Nc1ncc(Br)nc1Br + CC(C)O + O | 0.198
2) CC(C)C(=O)Nc1ccc([N+](=O)[O-])c(C(F)(F)F)c1 + CC(C)O + O | 8.23
3) O=C1C=CC(=O)N1c1ccccc1Br + CC(C)O + O | 4.6
4) O=c1cc(CBr)c2ccccc2[nH]1 + CCCO + O | 0.11
5) O=c1cc(CBr)c2ccccc2[nH]1 + CC(C)O + O | 0.0721

###

Test: xn = mol fraction of the nth substance listed, in the solute-free solvent
Conditions: 313.15 K; x2 = 0.6
Reported solubility (g/100 g solution) values follow for various compounds
METRIC_NAME: solubility (g/100 g solution)

1. CC(C)C(=O)Nc1ccc([N+](=O)[O-])c(C(F)(F)F)c1 + CCOC(C)=O + CC(C)O | 56.4
2. CC(C)C(=O)Nc1ccc([N+](=O)[O-])c(C(F)(F)F)c1 + C1CCOC1 + CC(C)O | 67.6
3. CC(C)C(=O)Nc1ccc([N+](=O)[O-])c(C(F)(F)F)c1 + CC(C)=O + CC(C)O | 67.1
4. Cl.NC1CCSC1=O (centres undefined) + CO + CC#N | 6.26

###

Reported solubility (g/100 g solution) values follow for various compounds
Experiment: xn = mol fraction of the nth substance listed, in the solute-free solvent
Conditions: 288.15 K; x2 = 0.1666
METRIC_NAME: solubility (g/100 g solution)

1) CC(C)C(=O)Nc1ccc([N+](=O)[O-])c(C(F)(F)F)c1 + CC(C)O + O | 0.775
2) Nc1ncc(Br)nc1Br + CC(C)O + O | 0.148
3) O=c1cc(CBr)c2ccccc2[nH]1 + CC(C)O + O | 0.0576
4) O=c1cc(CBr)c2ccccc2[nH]1 + CCCO + O | 0.084
5) O=C1C=CC(=O)N1c1ccccc1Br + CC(C)O + O | 3.18
